This collection of values is drawn from ChEMBL document CHEMBL4138300.

The following molecules are listed with their measured half-life values.
assay: Half life in human liver microsomes; assay type: ADME, microsome

* CCc1c(N(CC)C2CCOCC2)cc2oc(C3CCN(C)CC3)cc2c1C(=O)NCc1c(C)cc(C)[nH]c1=O | > 60 min

Proceeding to the next molecule to report its half-life.
**Q:** Using the record for CCc1c(N(CC)C2CCOCC2)cc2oc(C3CCN(C(C)C)CC3)cc2c1C(=O)NCc1c(C)cc(C)[nH]c1=O , report its half-life.
**A:** > 30 min
